TEST_DESCRIPTION: Pharmacokinetics of regorafenib in plasma of freely moving rats with or without RT (HPLC-UV)
Type: in vivo, Sprague-Dawley rats
CONDITIONS_USED: male, Sprague-Dawley, rat, plasma, po, 16 mg/kg, rat plasma; 16 mg/kg p.o. × 1 d, no RT; read-out: t½
ASSAY_ENDPOINT: half-life (h)
Answer in h, number only, no unit symbol.

For the molecule `CNC(=O)c1cc(Oc2ccc(NC(=O)Nc3ccc(Cl)c(C(F)(F)F)c3)c(F)c2)ccn1` , what half-life is on record?
15.7

----------
Tested on: Hep G2 cells
TEST_DESCRIPTION: Cell viability assay (MTT), Hep G2
Type: cell-based
CONDITIONS_USED: Homo sapiens, HepG2, 24 h, Hep G2; RT2 Gy, S (regorafenib added 24 h following RT); MTT after 24 h; read-out: IC50 (estimated concentration at which 50% of cells were killed)
ASSAY_ENDPOINT: IC50 (µM)
Answer with a number only, understood to be in µM.

Observed IC50 on Hep G2 cells for CNC(=O)c1cc(Oc2ccc(NC(=O)Nc3ccc(Cl)c(C(F)(F)F)c3)c(F)c2)ccn1 [regorafenib, Regorafenib] , please.
18.9

Sourced from paper PMC8035703
